- assayDetails: in vitro
- Format: in vitro ADME, canine
- testContext: dog, MDCK-MDR1
observedProperty: Papp (×10⁻⁶ cm/s)
Respond numerically; units are ×10⁻⁶ cm/s and should not be typed.

Lab note: measured Papp of Cc1csc([C@](C)(O)c2nnc(Nc3cc(C)n(Cc4csc(C)n4)n3)s2)n1 was 37.4

----------
- assayDetails: Sparse plasma sampling in infected mice of the combination study (experiment 2)
- Format: in vivo, mouse
- testContext: mouse, plasma; rifampicin co-administered with pyrazinamide; experiment 2; read-out: Plasma AUC0–24 h
observedProperty: AUC(0-t) (ng·h/mL)
Respond numerically; units are ng·h/mL and should not be typed.

Lab note: measured AUC(0-t) of CO[C@H]1/C=C/O[C@@]2(C)Oc3c(C)c(O)c4c(O)c(c(/C=N/N5CCN(C)CC5)c(O)c4c3C2=O)NC(=O)/C(C)=C\C=C\[C@H](C)[C@H](O)[C@@H](C)[C@@H](O)[C@@H](C)[C@H](OC(C)=O)[C@@H]1C [rifampicin, reference compound] was 68500

----------
- assayDetails: physchem
- testContext: pH 7.4, Chrom logD
observedProperty: chromatographic logD
# answer = number (no unit)

Lab note: measured chromatographic logD of Cc1csc([C@](C)(O)c2nnc(Nc3cc(C)n(Cc4csc(C)n4)n3)s2)n1 was 3.39

----------
- assayTarget: recombinant InhA (Mycobacterium tuberculosis, UniProt P9WGR1)
- Sequence (P9WGR1 whole entry, looked up): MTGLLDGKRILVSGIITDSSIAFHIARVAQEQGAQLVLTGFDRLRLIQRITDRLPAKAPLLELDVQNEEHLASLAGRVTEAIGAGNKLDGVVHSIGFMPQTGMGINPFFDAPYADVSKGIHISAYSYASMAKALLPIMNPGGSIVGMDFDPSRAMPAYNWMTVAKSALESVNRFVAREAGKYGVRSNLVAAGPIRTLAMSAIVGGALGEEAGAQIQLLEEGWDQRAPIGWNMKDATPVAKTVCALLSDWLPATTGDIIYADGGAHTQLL
- assayDetails: Inhibition of recombinant InhA
observedProperty: pIC50
On this scale, pIC50 is minus log10 of a concentration expressed in M (mol/L).

Lab note: measured pIC50 of Cc1csc([C@](C)(O)c2nnc(Nc3cc(C)n(Cc4csc(C)n4)n3)s2)n1 [GSK138] was 7.40

----------
- assayTarget: hERG (Homo sapiens, UniProt Q12809)
- Sequence (Q12809 whole entry): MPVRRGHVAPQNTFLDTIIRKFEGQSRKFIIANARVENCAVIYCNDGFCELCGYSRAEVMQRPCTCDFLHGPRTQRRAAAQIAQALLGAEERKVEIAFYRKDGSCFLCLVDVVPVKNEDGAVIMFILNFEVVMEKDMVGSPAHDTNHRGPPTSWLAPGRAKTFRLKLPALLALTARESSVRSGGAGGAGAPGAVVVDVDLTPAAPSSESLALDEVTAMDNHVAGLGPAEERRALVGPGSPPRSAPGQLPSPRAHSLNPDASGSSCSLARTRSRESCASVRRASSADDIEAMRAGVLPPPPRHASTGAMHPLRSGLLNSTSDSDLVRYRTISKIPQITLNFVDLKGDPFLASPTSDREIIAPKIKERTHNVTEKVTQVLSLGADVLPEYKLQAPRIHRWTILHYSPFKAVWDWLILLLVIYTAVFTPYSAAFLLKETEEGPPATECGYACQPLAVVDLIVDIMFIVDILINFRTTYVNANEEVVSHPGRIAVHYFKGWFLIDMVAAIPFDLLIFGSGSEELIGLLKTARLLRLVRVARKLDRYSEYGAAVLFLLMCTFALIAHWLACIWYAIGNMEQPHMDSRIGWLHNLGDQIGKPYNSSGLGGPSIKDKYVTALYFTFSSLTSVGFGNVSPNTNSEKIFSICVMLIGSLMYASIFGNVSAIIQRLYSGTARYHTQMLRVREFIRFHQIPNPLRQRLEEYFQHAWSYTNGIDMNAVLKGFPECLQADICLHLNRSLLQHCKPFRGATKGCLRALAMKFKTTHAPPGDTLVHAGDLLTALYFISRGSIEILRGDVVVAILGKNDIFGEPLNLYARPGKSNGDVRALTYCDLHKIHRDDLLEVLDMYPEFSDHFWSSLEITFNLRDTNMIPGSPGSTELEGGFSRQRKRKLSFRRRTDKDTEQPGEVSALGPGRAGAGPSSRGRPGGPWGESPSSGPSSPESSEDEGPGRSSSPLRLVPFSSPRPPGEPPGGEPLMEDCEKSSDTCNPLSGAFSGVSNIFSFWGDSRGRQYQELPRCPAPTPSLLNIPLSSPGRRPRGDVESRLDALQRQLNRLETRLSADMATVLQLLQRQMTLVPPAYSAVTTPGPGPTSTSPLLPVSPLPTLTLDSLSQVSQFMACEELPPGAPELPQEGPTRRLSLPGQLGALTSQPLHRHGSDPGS
- assayDetails: hERG Qpatch
pIC50: −log10 of the molar value.
observedProperty: pIC50

Log: hERG (Homo sapiens, UniProt Q12809), molecule Cc1csc([C@](C)(O)c2nnc(Nc3cc(C)n(Cc4csc(C)n4)n3)s2)n1 [GSK138] , pIC50 = < 4.52

----------
- assayDetails: in vivo
- Parameters: species or system C57BL/6 mice
- testContext: female, C57BL/6, mouse, iv, 1 mg/kg
observedProperty: Vd
// return the numeric value with its unit appended

Lab note: measured Vd of Cc1csc([C@](C)(O)c2nnc(Nc3cc(C)n(Cc4csc(C)n4)n3)s2)n1 was 2.6 L/kg

----------
- assayDetails: physchem
- testContext: pH 7.4, chrom logD
observedProperty: chromatographic logD

Lab note: measured chromatographic logD of Cc1csc([C@](C)(O)c2nnc(Nc3cc(C)n(Cc4csc(C)n4)n3)s2)n1 was 3.38

----------
- assayDetails: in vivo
- Set-up: species or system C57BL/6 mice
- testContext: female, C57BL/6, mouse, iv, 1 mg/kg
- Procedure: To determine the pharmacokinetic parameters, GSK138 was administered intravenously [formulation: 5% dimethyl sulfoxide (DMSO)/20% Encapsin in saline solution] as a single bolus dose in C57BL/6 mice at a target dose of 1 mg/kg. All pharmacokinetic parameters were determined in whole blood (Table 1). A moderate clearance and a moderate volume of distribution were observed. […]
observedProperty: clearance
// return the numeric value with its unit appended

Lab note: measured clearance of Cc1csc([C@](C)(O)c2nnc(Nc3cc(C)n(Cc4csc(C)n4)n3)s2)n1 was 77.6 mL/min/kg

Origin of values: paper PMC11539229
